biological target: UniProt P49840; experiment: GSK3alpha assay (same as the GSK3beta assay, GSK3alpha 0.25 ng/μl); assay type: biochemical; conditions: −log IC50 (M); given as ranges (>8; 7-8; <7); read-out: pIC50 (GSK3alpha) (converted)
Sequence (P49840 whole entry, species assumed): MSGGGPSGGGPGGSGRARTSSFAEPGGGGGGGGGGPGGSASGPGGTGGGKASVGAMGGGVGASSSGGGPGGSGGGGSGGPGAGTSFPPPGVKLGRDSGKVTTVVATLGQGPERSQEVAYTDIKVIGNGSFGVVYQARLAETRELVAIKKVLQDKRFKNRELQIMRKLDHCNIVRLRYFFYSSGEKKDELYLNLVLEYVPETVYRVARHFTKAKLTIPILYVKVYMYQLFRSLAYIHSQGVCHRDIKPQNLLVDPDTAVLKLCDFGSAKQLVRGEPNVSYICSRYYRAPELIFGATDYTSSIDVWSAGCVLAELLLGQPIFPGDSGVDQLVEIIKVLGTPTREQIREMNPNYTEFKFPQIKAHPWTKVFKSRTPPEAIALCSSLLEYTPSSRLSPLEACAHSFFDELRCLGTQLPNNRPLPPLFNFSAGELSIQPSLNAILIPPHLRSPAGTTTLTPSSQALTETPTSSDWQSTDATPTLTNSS
Reported IC50 values for the following compounds.

Study these solved cases before continuing.
1) CCOC(=O)NCc1cccc(-n2nnc3cnc(Nc4ccc(CC(=O)O)cc4)nc32)c1 ... < 1e-08 M
2) COCCOCc1cccc(-n2nnc3cnc(Nc4ccc(Cl)cc4)nc32)c1 ... < 1e-08 M
3) CS(=O)(=O)Nc1cccc(Nc2ncc3nnn(-c4cccc(F)c4)c3n2)c1 ... < 1e-08 M

IN: Given the compound "CC(=O)NCc1cccc(-n2nnc3cnc(Nc4cccc(C(C)=O)c4)nc32)c1" , write its reported IC50.
OUT: < 1e-08 M

IN: Given the compound "COCc1cccc(-n2nnc3cnc(Nc4cccc(C(=O)NCCNC(C)=O)c4)nc32)c1" , write its reported IC50.
OUT: < 1e-08 M
